Assay: recombinant barcode read abundance after kanamycin selection (control-corrected) (log10(CPM+1)); higher = more efficient recombination; sequences stand for … in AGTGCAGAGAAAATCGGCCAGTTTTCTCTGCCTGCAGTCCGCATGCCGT…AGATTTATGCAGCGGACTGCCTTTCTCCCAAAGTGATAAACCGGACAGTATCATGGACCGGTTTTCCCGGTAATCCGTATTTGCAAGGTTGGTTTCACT; site = the 11-nt target
Hi, to clarify the labels: satisfied covers recombinant barcode read abundance (log10) from 0.09 upward, not satisfied covers anything below 0.09.

The examples below pair each entry with its known result.
TGCTCTACTTGGGTTCTAACCTGTTGCTG (site TGTTCTACTCG); satisfied
CTCCGTCCTTGGGTTCTAACCTGTTGCCG (site GCCCGTCCTCG); satisfied
ACGTTTCCTTGGGTTCTAACCTGTTGCAT (site ACGTTTCCTAT); not satisfied

Q: Evaluate TGAACGTCTTGGGTTCTAACCTGTTGCCT (site TGAAGGTCTAG) : recombinant barcode read abundance (log10) at minimum 0.09?
Result: not satisfied

Q: Evaluate CGGCTACCTTGGGTTCTAACCTGTTGCCT (site CGGCTACCTAG) : recombinant barcode read abundance (log10) at minimum 0.09?
Result: satisfied

---

Assay: recombinant UMI read abundance after kanamycin selection (control-corrected) (log10(CPM+1)); higher = more efficient recombination; extreme values may be limits of the assay; sequences stand for … in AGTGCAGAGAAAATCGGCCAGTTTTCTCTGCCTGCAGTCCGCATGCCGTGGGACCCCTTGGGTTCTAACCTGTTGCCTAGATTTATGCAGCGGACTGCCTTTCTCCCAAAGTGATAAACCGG…AGGTTGGTTTCACT; site = the 11-nt donor
Each entry below carries its reported recombinant UMI read abundance (log10).
# answer = number (no unit)

Some entries whose results are on file:
GCGTCGTCATGGACCGGTTTTCCCGGTAATCCGTATTTGTT (site GCGTCGTCTAA); 0.947
TCCAATCCATGGACCGGTTTTCCCGGTAATCCGTATTTGCC (site TCCAATCCTGG); 0
AGCATCCCATGGACCGGTTTTCCCGGTAATCCGTATTTGGC (site AGCATCCCTGC); 1.74

Q: I am curious: what recombinant UMI read abundance (log10) value has been reported for CTGGAAGCATGGACCGGTTTTCCCGGTAATCCGTATTTGCA (site CTGGAAGCTTG) ?
Result: 1.04

Q: I am curious: what recombinant UMI read abundance (log10) value has been reported for TGCGACACATGGACCGGTTTTCCCGGTAATCCGTATTTGGT (site TGCGACACTAC) ?
Result: 0.00309

---

Experiment: recombinant barcode read abundance after kanamycin selection (control-corrected) (log10(CPM+1)); higher = more efficient recombination; sequences stand for … in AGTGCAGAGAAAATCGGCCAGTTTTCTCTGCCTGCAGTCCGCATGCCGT…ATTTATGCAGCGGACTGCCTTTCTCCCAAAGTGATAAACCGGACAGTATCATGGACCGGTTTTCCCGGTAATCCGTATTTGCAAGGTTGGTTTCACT; site = the 11-nt target
Each entry below carries its reported recombinant barcode read abundance (log10).
# answer = number (no unit)

GAGTCCTCTTGGGTTCTAACCTGTTGCCTCA [GAGTCCTCTAG_LTGcore_CT_RTGcore_TG] (site GAGTCCTCTAG) (LTG core: CT, RTG core: TG); 0.316
CGCGCCCAGTGGGTTCTAACCTGTTGCGGCT [CGCGCCCCTCC_LTGcore_AG_RTGcore_AG] (site CGCGCCCCTCC) (LTG core: AG, RTG core: AG); 0.0334
CGGTCCCATTGGGTTCTAACCTGTTGCCAAG [CGGTCCCCTTG_LTGcore_AT_RTGcore_CT] (site CGGTCCCCTTG) (LTG core: AT, RTG core: CT); 1.07
GGACACCCATGGGTTCTAACCTGTTGCCTTG [GGACACCCTAG_LTGcore_CA_RTGcore_CA] (site GGACACCCTAG) (LTG core: CA, RTG core: CA); 0.0906

Consider now this further sequence.
Q: I am curious: what recombinant barcode read abundance (log10) value has been reported for TAAGAATACTGGGTTCTAACCTGTTGCCTGT [TAAGAATCTAG_LTGcore_AC_RTGcore_AC] (site TAAGAATCTAG) (LTG core: AC, RTG core: AC) ?
Result: 0.0208
